- assayTarget: Cytochrome P450 1A2 (Homo sapiens, UniProt P05177)
- Sequence (P05177 whole entry): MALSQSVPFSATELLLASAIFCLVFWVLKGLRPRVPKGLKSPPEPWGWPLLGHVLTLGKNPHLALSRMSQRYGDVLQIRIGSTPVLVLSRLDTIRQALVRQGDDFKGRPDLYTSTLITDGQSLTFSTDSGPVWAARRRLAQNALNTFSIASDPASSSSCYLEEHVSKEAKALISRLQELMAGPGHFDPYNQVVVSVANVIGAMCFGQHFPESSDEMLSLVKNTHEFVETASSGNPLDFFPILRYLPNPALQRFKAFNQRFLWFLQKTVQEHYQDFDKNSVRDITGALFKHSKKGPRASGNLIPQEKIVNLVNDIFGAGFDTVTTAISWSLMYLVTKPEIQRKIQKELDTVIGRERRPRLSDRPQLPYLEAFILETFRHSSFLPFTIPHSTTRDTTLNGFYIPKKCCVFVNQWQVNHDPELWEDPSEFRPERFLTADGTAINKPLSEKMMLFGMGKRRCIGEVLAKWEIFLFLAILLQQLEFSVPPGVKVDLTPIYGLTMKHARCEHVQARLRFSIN
observationType: pIC50
Remember the convention: pIC50 equals -log10 of concentration in molar.

Notebook: CNC(=O)OC(C(=O)O)c1ccc(F)c(-c2ccc(OC)c(C(=O)N[C@H]3[C@@H](C(=O)Nc4ccc(F)c(C(F)(F)F)c4)[C@H]4CC[C@@H]3/C4=C\C3CC3)c2)c1 (stereo in doubt; 39) , pIC50 read as 5.34

###

- procedureText: Microsomal stability in human liver microsomes assessed as compound remaining measured after 30 mins
- Type: ADME, Microsome
- conditionsUsed: read-out: Stability
Quick reference: remaining at 0.5 h of the listed items.

Example cases with answers are listed next.
COc1ccc(-c2cc(C(=O)O)ccc2F)cc1C(=O)N[C@H]1[C@@H](C(=O)Nc2ccc(F)c(C(F)(F)F)c2)[C@H]2CC[C@@H]1/C2=C\c1cnoc1 :: > 90%
CNC(=O)OC(C(=O)O)c1ccc(F)c(-c2ccc(OC)c(C(=O)N[C@H]3[C@@H](C(=O)Nc4ccc(F)c(C(F)(F)F)c4)[C@H]4CC[C@@H]3/C4=C\C3CC3)c2)c1 (stereo in doubt; 40) :: > 90%
COc1ccc(-c2cc(C(=O)O)ccc2F)cc1C(=O)N[C@H]1[C@@H](C(=O)Nc2ccc(F)c(C(F)(F)F)c2)[C@H]2CC[C@@H]1/C2=C\C1CC1 :: > 90%
COc1ccc(-c2cc(C(O)C(=O)O)ccc2F)cc1C(=O)N[C@H]1[C@@H](C(=O)Nc2ccc(F)c(C(F)(F)F)c2)[C@H]2CC[C@@H]1/C2=C\c1cnoc1 (stereo partly specified) :: > 90%

Notebook: COc1ccc(-c2cc(C(=O)NS(C)(=O)=O)ccc2F)cc1C(=O)N[C@H]1[C@@H](C(=O)Nc2ccc(F)c(C(F)(F)F)c2)[C@H]2CC[C@@H]1/C2=C\c1cnoc1 , remaining at 0.5 h read as > 90%

Notebook: COc1ccc(-c2cc(C(=O)O)ccc2F)cc1C(=O)N[C@H]1[C@@H](C(=O)Nc2ccc(F)c(C(F)(F)F)c2)[C@H]2CC[C@@H]1/C2=C\C(F)(F)F , remaining at 0.5 h read as > 90%

Notebook: COc1ccc(-c2cc(CC(=O)O)ccc2F)cc1C(=O)N[C@H]1[C@@H](C(=O)Nc2ccc(F)c(C(F)(F)F)c2)[C@H]2CC[C@@H]1/C2=C\c1cnoc1 , remaining at 0.5 h read as > 90%

Notebook: COc1ccc(-c2cc(C(=O)O)ccc2F)cc1C(=O)N[C@H]1[C@@H](C(=O)Nc2ccc(F)c(C(F)(F)F)c2)[C@H]2CC[C@@H]1/C2=C\c1ccccc1 , remaining at 0.5 h read as > 90%

Notebook: CNC(=O)OC(C(=O)O)c1ccc(F)c(-c2ccc(OC)c(C(=O)N[C@H]3[C@@H](C(=O)Nc4ccc(F)c(C(F)(F)F)c4)[C@H]4CC[C@@H]3/C4=C\c3cnoc3)c2)c1 (stereo partly specified) , remaining at 0.5 h read as > 90%

Notebook: COc1ccc(-c2cc(O)ccc2F)cc1C(=O)N[C@H]1[C@@H](C(=O)Nc2ccc(F)c(C(F)(F)F)c2)[C@H]2CC[C@@H]1/C2=C\c1cnoc1 , remaining at 0.5 h read as > 90%

Notebook: COc1ccc(-c2cc(C(N)=O)ccc2F)cc1C(=O)N[C@H]1[C@@H](C(=O)Nc2ccc(F)c(C(F)(F)F)c2)[C@H]2CC[C@@H]1/C2=C\c1cnoc1 , remaining at 0.5 h read as > 90%
